experiment: qHTS assay to identify small molecule agonists of the vitamin D receptor (VDR) signaling pathway - cell viability counter screen (AID 743224); conditions: VDR-bla HEK293T viability, CellTiter-Glo luminescence, 16 h; series mostly up to 62.6 µM; note: nearly all actives have a fitted effect of over 50% in size
Inconclusive results are not listed. Activity calls are given as the source filed them. Calls come from the whole dose curve; as a rule, active = well fitted cell-killing curve with a large enough effect in the repeat runs; inconclusive = weak or mixed curves, or effect the other way; inactive = no such curve, though single readings can be large or run the other way.
Outcomes: active, inactive

| Compound | Cat |
| --- | --- |
| Oc1ccc(Sc2ccc(O)cc2)cc1 | inactive |
| NCCCOCCOCCOCCCN | inactive |
| CCCCCCCCN(C)C | inactive |
| CC(C)(C)c1ccc(OCC2CO2)cc1 (centres undefined) | inactive |
| CC(=O)OCCc1ccccc1 | inactive |
| CC(C)c1cccc(C(C)C)c1NC(=O)NS(=O)(=O)c1cc(C(C)(C)O)co1 | inactive |
| O=C(NN1CCCC1)NS(=O)(=O)c1ccc(Cl)cc1 | inactive |
| COc1ccccc1OC(=O)Oc1ccccc1OC | inactive |
| CCC(=O)OC(C)(C)C1CC=C(C)CC1 (centres undefined) | inactive |
| CCCCCOC(=O)COc1cc(N2C(=O)C3=C(CCCC3)C2=O)c(F)cc1Cl | inactive |
| Cc1occc1S | inactive |
| OCC1CC2CC1C1CCC(CO)C21 (centres undefined) | inactive |
| N#CCCNCCC#N | inactive |
| CCc1nn(C2CCCCC2)c2cc(C3(C#N)CCC(C(=O)O)CC3)ccc12 (centres undefined) | inactive |
| CC(C)(C)c1cc(CCC(=O)OCC(COC(=O)CCc2cc(C(C)(C)C)c(O)c(C(C)(C)C)c2)(COC(=O)CCc2cc(C(C)(C)C)c(O)c(C(C)(C)C)c2)COC(=O)CCc2cc(C(C)(C)C)c(O)c(C(C)(C)C)c2)cc(C(C)(C)C)c1O | inactive |
| CC(=O)CC(=O)c1ccccc1 | inactive |
| NC(=S)N/N=C/c1cccnc1 | inactive |
| C=C(C)C(=O)OCCN(C)C | inactive |
| CCCCCCCCCCCCCCCC(=O)OC/C=C(C)/C=C/C=C(C)/C=C/C1=C(C)CCCC1(C)C | inactive |
| CCCCOC(O)CC (centres undefined) | inactive |
| CCCCCC/C=C/C=O | inactive |
| Nc1nc(N)c2nc(CNc3ccc(C(=O)N[C@@H](CCC(=O)O)C(=O)O)cc3)cnc2n1 | active |
| CCOC(=O)C1=NN(c2ccccc2)C(=O)C1 | inactive |
| COc1ccc2[nH]c(S(=O)Cc3ncc(C)c(OC)c3C)nc2n1 (centres undefined) | inactive |

Origin of the recorded values: PubChem BioAssay (Tox21)
